// values below are reported Activity of a3b4 with peptide, expressed as a percentage of the reference compound
Molecular target: α3β4 (Homo sapiens, UniProt P30926+P32297)
Construct: host or cells: HEK293 or CHO
Sequence (P30926 22-498): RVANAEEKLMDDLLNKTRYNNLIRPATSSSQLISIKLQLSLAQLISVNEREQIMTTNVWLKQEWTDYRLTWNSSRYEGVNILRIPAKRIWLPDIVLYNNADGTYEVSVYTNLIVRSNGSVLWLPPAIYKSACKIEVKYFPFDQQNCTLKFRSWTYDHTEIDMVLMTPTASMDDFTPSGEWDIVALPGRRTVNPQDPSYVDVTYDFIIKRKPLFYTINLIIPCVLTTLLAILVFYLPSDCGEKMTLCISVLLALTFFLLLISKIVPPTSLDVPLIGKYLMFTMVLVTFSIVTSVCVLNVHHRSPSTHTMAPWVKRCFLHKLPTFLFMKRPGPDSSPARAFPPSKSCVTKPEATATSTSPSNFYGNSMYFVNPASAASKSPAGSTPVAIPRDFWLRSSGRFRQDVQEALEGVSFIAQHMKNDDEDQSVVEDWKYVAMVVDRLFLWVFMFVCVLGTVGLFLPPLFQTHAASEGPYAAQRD
Sequence (P32297 32-505): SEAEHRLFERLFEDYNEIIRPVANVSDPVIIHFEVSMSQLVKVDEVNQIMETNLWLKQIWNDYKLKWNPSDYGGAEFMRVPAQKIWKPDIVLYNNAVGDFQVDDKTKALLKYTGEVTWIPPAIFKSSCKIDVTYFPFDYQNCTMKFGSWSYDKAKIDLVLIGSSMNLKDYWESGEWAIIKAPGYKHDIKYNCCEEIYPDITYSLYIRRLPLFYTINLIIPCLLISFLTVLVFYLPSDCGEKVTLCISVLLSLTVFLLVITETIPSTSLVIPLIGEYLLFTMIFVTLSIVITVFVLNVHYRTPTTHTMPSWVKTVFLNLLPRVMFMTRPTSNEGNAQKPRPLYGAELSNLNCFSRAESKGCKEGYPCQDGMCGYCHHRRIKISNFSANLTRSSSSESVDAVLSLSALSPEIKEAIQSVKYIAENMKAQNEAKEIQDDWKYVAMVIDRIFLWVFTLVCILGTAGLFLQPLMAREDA
Experiment: Ion channel panel (IonWorks Barracuda): α3β4
Format: cell-based
Conditions: peptide at 0.2 μM; 100% = no change, <100% = inhibition
Your answer should be a plain number; it is taken to be in %.

Solved cases (3 shown):
{"substance": "27 (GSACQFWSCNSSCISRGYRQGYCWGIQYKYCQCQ) [compound 27]", "subjectOfTest": "α3β4 (Homo sapiens, UniProt P30926+P32297)", "measureUnit": "%", "assayResult": 98}
{"substance": "39 (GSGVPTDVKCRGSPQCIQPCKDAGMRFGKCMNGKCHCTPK) [compound 39]", "subjectOfTest": "α3β4 (Homo sapiens, UniProt P30926+P32297)", "measureUnit": "%", "assayResult": 99}
{"substance": "36 (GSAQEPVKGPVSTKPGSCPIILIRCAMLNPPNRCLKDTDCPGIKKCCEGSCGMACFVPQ) [compound 36]", "subjectOfTest": "α3β4 (Homo sapiens, UniProt P30926+P32297)", "measureUnit": "%", "assayResult": 95}

Now turn to the next substance.
Task: Which Activity of a3b4 with peptide, expressed as a percentage of the reference compound reading was recorded for the substance 38 (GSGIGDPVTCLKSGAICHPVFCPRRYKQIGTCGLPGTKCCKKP) [compound 38] ?
Output: 99

These data points were gathered from patent US20200262877A1.
